Measurement target: RAC-beta serine/threonine-protein kinase (Homo sapiens) (UniProt P31751)
Sequence (P31751 whole entry): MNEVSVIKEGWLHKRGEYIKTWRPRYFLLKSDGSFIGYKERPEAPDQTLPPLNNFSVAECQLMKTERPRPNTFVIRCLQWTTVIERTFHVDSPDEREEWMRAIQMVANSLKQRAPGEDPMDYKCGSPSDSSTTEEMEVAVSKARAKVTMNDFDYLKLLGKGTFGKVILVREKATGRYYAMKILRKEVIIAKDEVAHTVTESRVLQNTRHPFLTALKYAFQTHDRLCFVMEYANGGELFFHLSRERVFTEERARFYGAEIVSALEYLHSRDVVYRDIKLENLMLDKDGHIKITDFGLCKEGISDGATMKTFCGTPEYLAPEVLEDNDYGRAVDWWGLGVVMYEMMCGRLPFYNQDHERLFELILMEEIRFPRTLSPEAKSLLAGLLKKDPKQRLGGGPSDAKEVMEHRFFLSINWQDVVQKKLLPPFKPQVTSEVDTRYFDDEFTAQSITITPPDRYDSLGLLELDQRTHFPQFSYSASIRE
Procedure text: Inhibition of AKT2 at 30 uM by microfluidic mobility shift assay
Reported values of inhibition for individual entries

{"Structure notation": "Cc1[nH]c(=O)c2c(N)n(-c3ccccc3)nc2c1-c1ccccc1", "inhibition, %": 4}
{"Structure notation": "COc1ccc(S(=O)(=O)Nc2nn(C)c3cc(C)[nH]c(=O)c23)c(OC)c1", "inhibition, %": 6}
{"Structure notation": "Cc1cc2[nH]nc(N)c2c(=O)[nH]1", "inhibition, %": 8}
{"Structure notation": "COCCNc1nc(C)cc2nn(-c3ccccc3)c(N)c12", "inhibition, %": 2}
{"Structure notation": "Cn1nc(N)c2c(=O)[nH]c(-c3ccccn3)cc21", "inhibition, %": 10}
{"Structure notation": "Cc1cc2c(c(N)nn2C)c(N2CCCCC2)n1", "inhibition, %": 0}
{"Structure notation": "Cc1cc2[nH]nc(N)c2cn1", "inhibition, %": -3}
{"Structure notation": "CN1CCN(c2ccc(-c3cc4[nH]nc(N)c4c(=O)[nH]3)cc2)CC1", "inhibition, %": 6}
{"Structure notation": "Nc1c2c(=O)[nH]c(-c3ccccn3)cc2nn1-c1ccccc1", "inhibition, %": 8}
{"Structure notation": "COc1cccc(-c2cc3[nH]nc(N)c3c(=O)[nH]2)c1", "inhibition, %": 2}
{"Structure notation": "CN1CCN(c2ccc(-c3cc4c(c(N)nn4C)c(=O)[nH]3)cc2)CC1", "inhibition, %": -1}
{"Structure notation": "COC(=O)CCc1c(C)[nH]c(=O)c2c(N)nn(C)c12", "inhibition, %": 3}
{"Structure notation": "Cc1cc2c(c(N)nn2C)c(=O)[nH]1", "inhibition, %": 4}
{"Structure notation": "COc1ccc(-c2cc3c(c(N)nn3C)c(=O)[nH]2)cc1", "inhibition, %": -8}
{"Structure notation": "COc1cccc(-c2cc3c(c(N)nn3C)c(=O)[nH]2)c1", "inhibition, %": 1}
{"Structure notation": "Nc1n[nH]c2cc(CC3CCNCC3)[nH]c(=O)c12", "inhibition, %": 6}
{"Structure notation": "CC(C)(C)c1cc2nn(-c3ccccc3)c(N)c2c(=O)[nH]1", "inhibition, %": 3}
{"Structure notation": "Nc1n[nH]c2cc(-c3ccc(N4CCOCC4)cc3)[nH]c(=O)c12", "inhibition, %": 7}
{"Structure notation": "Cc1cc2nc(N)nc(N)c2c(=O)[nH]1", "inhibition, %": 0}
{"Structure notation": "CC(=O)Nc1nn(C)c2cc(-c3ccc(N4CCN(C)CC4)cc3)[nH]c(=O)c12", "inhibition, %": -1}
{"Structure notation": "COc1ccccc1-c1cc2nn(-c3ccccc3)c(N)c2c(=O)[nH]1", "inhibition, %": 0}
{"Structure notation": "Cc1cc2[nH]nc(N)c2c(N2CCCCC2)n1", "inhibition, %": 11}
{"Structure notation": "CC(=O)Nc1nn(C)c2cc(-c3ccccc3)[nH]c(=O)c12", "inhibition, %": 40}
{"Structure notation": "Cc1nc(N)c2c(=O)[nH]c(C)cc2n1", "inhibition, %": 2}
{"Structure notation": "Cc1cc2c(c(NS(C)(=O)=O)nn2C)c(=O)[nH]1", "inhibition, %": 16}
{"Structure notation": "Cc1cc2c(c(NC(=O)Nc3ccccc3)nn2C)c(=O)[nH]1", "inhibition, %": 11}
{"Structure notation": "Nc1n[nH]c2cc(-c3ccccn3)[nH]c(=O)c12", "inhibition, %": 8}
{"Structure notation": "Cn1nc(N)c2cnc(-c3ccccc3)cc21", "inhibition, %": 6}
{"Structure notation": "Cc1cc2nn(-c3ccccc3)c(N)c2c(N2CCCCC2)n1", "inhibition, %": -7}
{"Structure notation": "Cc1cc2c(cn1)c(N)nn2C", "inhibition, %": -2}
{"Structure notation": "COc1ccc(-c2cc3nn(-c4ccccc4)c(N)c3c(=O)[nH]2)cc1", "inhibition, %": 0}
{"Structure notation": "CC(C)(C)c1cc2[nH]nc(N)c2c(=O)[nH]1", "inhibition, %": 4}
{"Structure notation": "Cc1cc2[nH]nc(N)c2c(N2CCOCC2)n1", "inhibition, %": 7}
{"Structure notation": "Nc1c2cnc(-c3ccccc3)cc2nn1-c1ccccc1", "inhibition, %": 3}
{"Structure notation": "COCCNc1nc(-c2ccccc2)cc2c1c(N)nn2C", "inhibition, %": -1}
{"Structure notation": "Cc1cc2c(c(N)nn2C)c(N2CC[C@H](O)C2)n1", "inhibition, %": 4}
{"Structure notation": "COCCNc1nc(C)cc2c1c(N)nn2C", "inhibition, %": -3}
{"Structure notation": "Cc1cc2nc(-c3ccccc3)nc(N)c2c(=O)[nH]1", "inhibition, %": 2}
{"Structure notation": "Cn1nc(N)c2c(=O)[nH]c(-c3ccccc3)cc21", "inhibition, %": 4}
{"Structure notation": "Cc1cc2c(c(N)nn2C)c(N2CCOCC2)n1", "inhibition, %": 12}
{"Structure notation": "COc1ccc(-c2cc3[nH]nc(N)c3c(=O)[nH]2)cc1", "inhibition, %": 11}
{"Structure notation": "Nc1n[nH]c2c3c([nH]c(=O)c12)CCCC3", "inhibition, %": -1}
{"Structure notation": "Nc1n[nH]c2cc(-c3cccs3)[nH]c(=O)c12", "inhibition, %": 5}
{"Structure notation": "Cn1nc2c3c(nc(-c4ccccc4)cc31)NCC(=O)N2", "inhibition, %": 1}
{"Structure notation": "Cc1cc2nn(-c3ccccc3)c(N)c2c(=O)[nH]1", "inhibition, %": 1}
{"Structure notation": "COc1ccc(-c2c(C)[nH]c(=O)c3c(N)nn(C)c23)cc1", "inhibition, %": 25}
{"Structure notation": "Nc1n[nH]c2cc(-c3cccnc3)[nH]c(=O)c12", "inhibition, %": 8}
{"Structure notation": "CN1CCN(c2ccc(-c3cc4nn(-c5ccccc5)c(N)c4c(=O)[nH]3)cc2)CC1", "inhibition, %": 10}
{"Structure notation": "Nc1c2c(=O)[nH]c(-c3ccccc3)cc2nn1-c1ccccc1", "inhibition, %": -1}

====

Measurement target: Tyrosine-protein kinase Lyn (Homo sapiens, UniProt P07948)
Sequence (P07948 2-512 limits assumed): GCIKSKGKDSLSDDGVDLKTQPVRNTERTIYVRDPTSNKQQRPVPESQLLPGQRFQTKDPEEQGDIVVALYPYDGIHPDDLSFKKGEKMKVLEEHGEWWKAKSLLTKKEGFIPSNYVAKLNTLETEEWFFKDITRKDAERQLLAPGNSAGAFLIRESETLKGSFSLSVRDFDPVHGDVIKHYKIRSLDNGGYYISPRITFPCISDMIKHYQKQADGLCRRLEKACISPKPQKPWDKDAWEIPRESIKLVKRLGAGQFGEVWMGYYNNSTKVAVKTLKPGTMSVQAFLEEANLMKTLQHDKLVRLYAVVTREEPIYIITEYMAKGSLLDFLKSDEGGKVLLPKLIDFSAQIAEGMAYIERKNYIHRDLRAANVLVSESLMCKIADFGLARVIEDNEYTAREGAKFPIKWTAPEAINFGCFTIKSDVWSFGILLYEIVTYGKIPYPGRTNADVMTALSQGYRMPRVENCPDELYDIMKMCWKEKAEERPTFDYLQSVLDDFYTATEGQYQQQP
Procedure text: Inhibition of LYN at 30 uM by microfluidic mobility shift assay
Each entry below lists one item and its recorded inhibition value.
Quantity: inhibition (%)

{"Structure notation": "CC(=O)Nc1nn(C)c2cc(-c3ccccc3)[nH]c(=O)c12", "Unit tag": "%", "Value measured": 13}
{"Structure notation": "COCCNc1nc(-c2ccccc2)cc2c1c(N)nn2C", "Unit tag": "%", "Value measured": 4}
{"Structure notation": "COc1ccc(-c2c(C)[nH]c(=O)c3c(N)nn(C)c23)cc1", "Unit tag": "%", "Value measured": 19}
{"Structure notation": "COc1cccc(-c2cc3[nH]nc(N)c3c(=O)[nH]2)c1", "Unit tag": "%", "Value measured": 49}
{"Structure notation": "Cn1nc(N)c2c(=O)[nH]c(-c3ccccn3)cc21", "Unit tag": "%", "Value measured": 10}
{"Structure notation": "Nc1n[nH]c2cc(-c3cccnc3)[nH]c(=O)c12", "Unit tag": "%", "Value measured": 39}

====

Measurement target: UniProtKB P49841
Sequence (P49841 whole entry, looked up): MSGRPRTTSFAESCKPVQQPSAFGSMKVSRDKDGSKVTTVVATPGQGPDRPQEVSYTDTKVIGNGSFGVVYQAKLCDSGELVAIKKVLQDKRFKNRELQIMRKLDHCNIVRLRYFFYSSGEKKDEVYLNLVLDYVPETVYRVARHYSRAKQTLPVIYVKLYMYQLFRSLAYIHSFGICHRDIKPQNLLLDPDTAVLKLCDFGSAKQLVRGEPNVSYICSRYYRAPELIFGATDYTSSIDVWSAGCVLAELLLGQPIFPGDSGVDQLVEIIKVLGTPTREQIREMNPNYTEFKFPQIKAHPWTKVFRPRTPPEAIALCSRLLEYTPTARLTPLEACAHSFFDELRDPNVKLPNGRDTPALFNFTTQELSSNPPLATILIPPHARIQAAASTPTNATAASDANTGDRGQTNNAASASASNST
Procedure text: Inhibition of GSK3B at 30 uM by microfluidic mobility shift assay
Binning scheme for inhibition: LOW: < 8%; MID: ≥ 8% and < 60%; HIGH: ≥ 60%

{"Structure notation": "COc1ccccc1-c1cc2nn(-c3ccccc3)c(N)c2c(=O)[nH]1", "Group label": "LOW"}
{"Structure notation": "Cc1cc2c(c(NC(=O)Nc3ccccc3)nn2C)c(=O)[nH]1", "Group label": "LOW"}
{"Structure notation": "Cc1nc(N)c2c(=O)[nH]c(C)cc2n1", "Group label": "MID"}
{"Structure notation": "Nc1n[nH]c2cc(-c3cccs3)[nH]c(=O)c12", "Group label": "HIGH"}
{"Structure notation": "COc1ccc(-c2c(C)[nH]c(=O)c3c(N)nn(C)c23)cc1", "Group label": "MID"}
{"Structure notation": "Cn1nc2c3c(nc(-c4ccccc4)cc31)NCC(=O)N2", "Group label": "MID"}
{"Structure notation": "Cc1cc2[nH]ncc2c(=O)[nH]1", "Group label": "MID"}
{"Structure notation": "Nc1n[nH]c2cc(CC3CCNCC3)[nH]c(=O)c12", "Group label": "LOW"}
{"Structure notation": "Cc1cc2[nH]nc(N)c2c(N2CCOCC2)n1", "Group label": "HIGH"}
{"Structure notation": "O=S(=O)(NCCNC/C=C/c1ccc(Br)cc1)c1cccc2cnccc12", "Group label": "MID"}
{"Structure notation": "Cc1cc2[nH]nc(N)c2c(N2CCCCC2)n1", "Group label": "MID"}
